Please respond with reported chromatographic logP for every item in the list.
test: log P determination by reversed-phase HPLC (EEC Directive 79/831 Annex V.A8; acidic or neutral mobile phase); format: physicochemical; conditions: reversed-phase C18 HPLC column; HPLC, reversed-phase C 18, 43° C.; mobile phase range not marked; read-out: log P
API note: the answer field is a bare number with no unit suffix.

In: If you can, please state the reported chromatographic logP value of CCOC(=O)c1ccc(Cl)c(OCCN)c1Cl .
Out: 1.08

In: Recorded chromatographic logP for CCOC(=O)c1ccc(Cl)c(OCCNS(C)(=O)=O)c1Cl [VIII-2] , please?
Out: 2.35

In: What does the record list as chromatographic logP for CON(C)Cc1c(Cl)ccc(C(=O)O)c1Cl [II-1] ?
Out: 1.99

In: Which chromatographic logP value is on record for CON(C)Cc1c(Cl)ccc(C(=O)C2C(=O)CCCC2=O)c1Cl [Example 1] ?
Out: 3.04

In: What measured chromatographic logP goes with COC(=O)c1ccc(Cl)c(CN(C)OC)c1Cl [VIII-1] ?
Out: 3.08

In: Quick one: chromatographic logP for CS(=O)(=O)NCCOc1c(Cl)ccc(C(=O)O)c1Cl [II-2] ?
Out: 1.36

In: I'd like to know its chromatographic logP. The molecule in question is CCOC(=O)c1ccc(Cl)c(OCCNC(=O)OC(C)(C)C)c1Cl
Out: 3.79
